experiment: gradient 5% acetonitrile 3 min, to 50% in 2 min, to 85% in 15 min, held 3 min, 100 µL/min; details: column: Zorbax Extend-C18 2.1 x 50 mm; eluents: water / acetonitrile, 0.1% formic acid
measured_property: RP-LC retention time (s)

O=C(NCc1cccc(Br)c1)C(=O)c1ccc[nH]1    874

(a) COc1ccc(Nc2cc(Cl)ccc2C(=O)O)cn1
(b) CC1=C(C(=O)N2CCOCC2)C(c2cc(Br)ccc2F)C2=C(CCCC2=O)N1 (stereo not drawn)
Lookup: Between a and b , which one shows the smaller RP-LC retention time number? // return label of chosen record
Found: b
(b: 659 s, a: 978 s)

----------
assay: gradient 5% acetonitrile 3 min, to 50% in 2 min, to 85% in 15 min, held 3 min, 100 µL/min; conditions: column: Zorbax Extend-C18 2.1 x 50 mm; eluents: water / acetonitrile, 0.1% formic acid
measured_property: RP-LC retention time (s)

O=C(Cn1cc(S(=O)(=O)N2CCCC2)ccc1=O)N1CCCc2ccccc21    782
O=C(Cn1c(=O)c2cc(C3CC3)nn2c2ncccc21)N1CCc2ccccc21    808
CCn1c(=O)c2c(cc(C)n2C)n(CC(=O)Nc2ccc(C)cc2C)c1=O    812
O=C(CN1C(=O)NC2(CCCCC2)C1=O)Nc1cc(F)ccc1F    779

----------
experiment: gradient 5% acetonitrile 3 min, to 50% in 2 min, to 85% in 15 min, held 3 min, 100 µL/min; conditions: column: Zorbax Extend-C18 2.1 x 50 mm; eluents: water / acetonitrile, 0.1% formic acid
measured_property: RP-LC retention time (s)

Answered examples (2):
CC(C)CCNC(=O)Cn1nc2c3cc(-c4ccc(F)cc4)nn3ccn2c1=O    876
CCCN1C(=O)CCc2cc(NS(=O)(=O)c3ccc(C(F)(F)F)cc3)ccc21    914

(1) c1ccc(N2CCN(Cc3csc4c3CCCC4)CC2)nc1
(2) CCN(CC)S(=O)(=O)c1ccc2c(c1)N(CC(=O)N1CCCCC1)C(=O)C1CCCCN21 (stereo not given)
Lookup: Between 1 and 2 , which one shows the smaller RP-LC retention time number? // return label of chosen record
Found: 1

----------
assay: gradient 5% acetonitrile 3 min, to 50% in 2 min, to 85% in 15 min, held 3 min, 100 µL/min; settings: column: Zorbax Extend-C18 2.1 x 50 mm; eluents: water / acetonitrile, 0.1% formic acid
measured_property: RP-LC retention time (s)

COc1ccccc1CNC(=O)Cn1nc2cc(-c3ccccc3)nc(C)n2c1=O    705
Cc1cc(N(C)C)n2nc(CN3CCN(c4cccc(C)c4C)CC3)nc2n1    655
Cn1nccc1C(=O)N1CCN(c2nc3c(S(C)(=O)=O)cccc3s2)CC1    656
COc1ccc(C)c(N2C(=O)CC(N3CCC(C(N)=O)CC3)C2=O)c1 (stereo not given)    586
COc1cccc(NC(=O)N2CCN(c3cc(C)nc(N4CCOCC4)n3)CC2)c1    628
Cc1ccc(Nc2c(-c3cccc(Cl)c3)nc3ccccn23)cc1    780
COc1ccc(NC(=O)N2CCc3nc[nH]c3C2)cc1Cl    580
Cc1ccccc1CN1CC(F)(F)C[C@H]1COc1ccncc1    821
Cc1cc(NC(=O)c2cn(-c3ccc(C#N)cc3)cn2)ccc1Br    1020
CCN(Cc1ccncc1)C(=O)C(CO)c1ccccc1 (stereo not given)    619
O=C(NC1CC1)[C@@H]1C[C@H](Oc2cccnc2)CN1C(=O)c1cnccn1    526
O=C(NCCc1cccs1)C1CCN(S(=O)(=O)c2ccc(-c3noc(C4CC4)n3)cc2)CC1    946
CC(C)Cn1cc(CCNC(=O)Nc2ccc(F)c(Cl)c2)c2cccnc21    912
COc1ccc(CCN2CCC(CNS(=O)(=O)c3cc(-c4cc(C)no4)cs3)CC2)cc1    718
COc1cc(OC)c(NC(=O)CN2C(=O)NC(c3ccc(Cl)cc3)C3=C2COC3=O)cc1Cl (stereo not given)    858
CC(C)c1ccc(NC(=O)C2(Cc3cccnc3)CCCCC(=O)N2)cc1 (stereo not given)    669
Cc1ccc(C)c(S(=O)(=O)N2CCN(c3ccc(-n4nc(C)c(C)c4C)nn3)CC2)c1    995
Cc1ccccc1CNC(=O)Cn1c(=O)c2nncn2c2ncccc21    662
O=C(Cn1ccc2c(SCc3ccc(F)cc3)nccc21)NCc1ccc(N2CCOCC2)cc1    706
CCOc1ccc(S(=O)(=O)Nc2cc(-c3cn4ccc(C)cc4n3)ccc2C)cc1    718
